Quick reference for microsomal CLint at 1 uM among some compounds
Experiment: Metabolic stability in human hepatic microsome
Format: in vitro ADME
Settings: microsomes, pH 7.4; human hepatic microsome, NADPH(+); read-out: CL NADPH(+)
Positions of bridges follow the written chain, without caps; N, C: chain ends. Non-standard residues stand in square brackets, D forms with d. Residues, ends and D or L forms follow the SMILES beside them. *: point of attachment. NMeF = CN[C@@H](Cc1ccccc1)C(=O)O; NMeI = CC[C@H](C)[C@H](NC)C(=O)O; NMeL = CN[C@@H](CC(C)C)C(=O)O; NMeV = CN[C@H](C(=O)O)C(C)C; NMeA = CN[C@@H](C)C(=O)O; Piperidide = C1CCN(*)CC1; Aze = O=C(O)[C@@H]1CCN1; Sar = CNCC(=O)O; tBu = CC(C)(C)*
Return type: number; implicit unit µL/min/mg.

Recorded microsomal CLint at 1 uM, per entry:
CC[C@H](C)[C@H]1C(=O)N[C@H](C(=O)N2CCCCC2)CC(=O)N[C@H](C)C(=O)N[C@@H]([C@@H](C)O)C(=O)N(C)[C@@H](Cc2ccccc2)C(=O)N[C@@H](CC(C)C)C(=O)N2CCC[C@H]2C(=O)N(C)[C@@H](C(C)C)C(=O)N[C@@H](Cc2ccccc2)C(=O)N(C)CC(=O)N(C)[C@@H](CC(C)C)C(=O)N[C@@H](C)C(=O)N1C [DP-215] ([dA]T[NMeF]LP[NMeV]F[Sar][NMeL]A[NMeI]D-Piperidide; lactam N-12) : 35
CC[C@H](C)[C@H]1C(=O)NCC(=O)N(C)[C@@H](CC(C)C)C(=O)N[C@@H]([C@@H](C)O)C(=O)N2CC[C@H]2C(=O)N[C@@H](Cc2ccccc2)C(=O)N[C@H](C(=O)N2CCCCC2)CC(=O)N(C)[C@@H](C)C(=O)N[C@@H](Cc2ccccc2)C(=O)N(C)[C@@H](CC(C)C)C(=O)N[C@@H](CC(C)C)C(=O)N1C [DP-558] ([NMeA]F[NMeL]L[NMeI]G[NMeL]T[Aze]FD-Piperidide; lactam N-11) : 133

Now look at this entry.
Task: Kindly indicate its recorded microsomal CLint at 1 uM. Item: CC(C)C[C@@H](C(=O)N[C@@H](C)C(=O)N1CCCCC1)N(C)C(=O)[C@@H]1CC(=O)N[C@H](C(C)C)C(=O)N[C@@H]([C@@H](C)O)C(=O)N(C)[C@@H](C)C(=O)N(C)[C@@H](Cc2ccccc2)C(=O)N(C)[C@@H](Cc2ccccc2)C(=O)N[C@@H](COC(C)(C)C)C(=O)N(C)[C@@H](CC(C)C)C(=O)NCC(=O)N1 [DP-575] ([dV]T[NMeA][NMeF][NMeF]S(tBu)[NMeL]GD[NMeL]A-Piperidide; lactam N-9)
Result: 70

###

Quick reference for Papp at 18 hours, 50 µM among some compounds
Assay: PAMPA (parallel artificial membrane permeability assay)
Type: in vitro ADME
Settings: PAMPA; membrane permeation rate (Pe); 50 mM MOPSO buffer pH 6.5 with 5.0% glycocholic acid, 37° C., 18 hours; read-out: iPAMPA Pe
Starred links: 1 amine or outer side, 2 acyl side, 3 side chain; linkers in the order of their positions; H or OH if unused. Positions of bridges follow the written chain, without caps; N, C: chain ends. Non-standard residues stand in square brackets, D forms with d. Residues, ends and D or L forms follow the SMILES beside them. *: point of attachment. NMeF = CN[C@@H](Cc1ccccc1)C(=O)O; NMeGABA = CN(CCCC(=O)[*:2])[*:1]; NMeL = CN[C@@H](CC(C)C)C(=O)O; NMeA = CN[C@@H](C)C(=O)O; Piperidide = C1CCN(*)CC1; tBu = CC(C)(C)*
Return type: number; implicit unit ×10⁻⁶ cm/s.

Task: Kindly indicate its recorded Papp at 18 hours, 50 µM. Item: CC(C)C[C@H]1C(=O)N(C)[C@@H](C)C(=O)N(C)[C@@H](Cc2ccccc2)C(=O)N[C@@H](COC(C)(C)C)C(=O)N[C@H](C(=O)N2CCCCC2)CC(=O)N(C)CCCC(=O)N[C@@H]([C@@H](C)O)C(=O)N1C [DP-677] ([NMeGABA]T[NMeL][NMeA][NMeF]S(tBu)D-Piperidide; lactam N-7)
Result: 7.2
